- experimental_target: activated human MMP13 (human, UniProt P45452 104-471)
- assay_details: cell-based or functional assay
assay_endpoint: potency, human fluorogenic peptide assay (nM)

Here are 3 binders together with their reported answers.
{"binder": "C010100687 (bispecific antibody) EVQLVESGGGLVQPGGSLRLSCAASGFTLAYYSIGWFRQAPGKEREGVSCISSGIDGSTYYADSVKGRFTISRDNAKNTMYLQMNNLKPEDTGVYYCAADPSHYYSEYDCGYYGMDYWGKGTLVTVSSGGGGSGGGGSGGGGSGGGGSGGGGSGGGGSGGGGSEVQLVESGGGLVQPGGSLRLSCAASGSTFIINVVRWYRRAPGKQRELVATISSGGNANYVDSVRGRFTISRDNSKNTVYLQMNSLRPEDTAVYYCNVPTTHYGGVYYGPYWGQGTLVTVSS", "output_unit": "nM", "reported": 1.57}
{"binder": "C010100691 (bispecific antibody) EVQLVESGGGLVQPGGSLRLSCAASGSIFSINAMGWYRQAPGKQRELVAAISSGGSTYYADSVKGRFTISRDNSKNTVYLQMNSLRPEDTAVYYCNAAVDASRGLPYELYYYWGQGTLVTVSSGGGGSGGGGSGGGGSGGGGSGGGGSGGGGSGGGGSEVQLVESGGGLVQPGGSLRLSCAASGRTFSSYTMGWFRQAPGKEREFVAAISWSGGRTYYADSVKGRFTISRDNSKNTVYLQMNSLRPEDTAVYYCAAYRRRRASSNRGLWDYWGQGTLVTVSS", "output_unit": "nM", "reported": 0.484}
{"binder": "C010100692 (bispecific antibody) EVQLVESGGGLVQPGGSLRLSCAASGFAFSAAYMSWVRQAPGKGLEWVSSISDDGSKTYYADSVKGRFTISRDNSKNTVYLQMNSLRPEDTAVYYCNTGYGATTTRPGRYWGQGTLVTVSSGGGGSGGGGSGGGGSGGGGSGGGGSGGGGSGGGGSEVQLVESGGGLVQPGGSLRLSCAASGRTFSSYTMGWFRQAPGKEREFVAAISWSGGRTYYADSVKGRFTISRDNSKNTVYLQMNSLRPEDTAVYYCAAYRRRRASSNRGLWDYWGQGTLVTVSS", "output_unit": "nM", "reported": 0.828}

A: C010100170 (VHH) VHH: EVQLVESGGGLVQPGGSLRLSCAASGSIFSINAMGWYRQAPGKQRELVAAISSGGSTYYADSVKGRFTISRDNSKNTVYLQMNSLRPEDTAVYYCNAAVDASRGLPYELYYYWGQGTLVTVSS
B: C010100280 (VHH) VHH: EVQLVESGGGLVQPGGSLRLSCAASGFAFSAAYMSWVRQAPGKGLEWVSSISDDGSKTYYADSVKGRFTISRDNSKNTVYLQMNSLRPEDTAVYYCNTGYGATTTRPGRYWGQGTLVTVSS
Query: Kindly identify which of A and B has the larger recorded potency, human fluorogenic peptide assay value. Choose, then provide that item's label.
Result: B

Data origin, for the record: patent US12129308
